# target-or-system: T1, ovalbumin (UniProt P01012 2-386)
# T1 sequence (looked up): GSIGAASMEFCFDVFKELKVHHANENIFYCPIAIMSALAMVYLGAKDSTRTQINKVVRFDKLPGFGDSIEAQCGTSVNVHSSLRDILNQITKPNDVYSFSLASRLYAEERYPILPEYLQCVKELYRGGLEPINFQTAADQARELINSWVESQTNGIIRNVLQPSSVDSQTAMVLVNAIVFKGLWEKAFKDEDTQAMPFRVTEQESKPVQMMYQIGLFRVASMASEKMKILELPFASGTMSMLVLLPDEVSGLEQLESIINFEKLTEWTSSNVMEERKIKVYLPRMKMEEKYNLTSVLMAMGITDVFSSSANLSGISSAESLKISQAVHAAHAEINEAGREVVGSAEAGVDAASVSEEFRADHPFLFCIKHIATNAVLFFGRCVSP
# protocol: counter screen
observed-property: binding result

INSERT INTO assay_data (binder, result) VALUES
  ('GSKSCREGYIDGGGCCLPGSCRGCACSYYDWLKCPRDCRGTSEEENLYFQ (Recombinant, cut out by TEV protease) [K60 knob domain peptide cleaved from the 645 Fab]', 'no binding'),
  ('GSSGCPPGYKSGVDCSPGSECKWGCYAVDGRRYGGYGADSGVENLYFQ (Recombinant, cut out by TEV protease) [K57 knob domain peptide cleaved from the 645 Fab]', 'no binding'),
  ('K8 knob domain peptide cleaved from the 645 Fab (Recombinant, cut out by TEV protease) peptide: GSVCPDGFNWGYGCAAGSSRFCTRHDWCCYDERADSHTYGFCTGNRVENLYFQ', 'no binding'),
  ('K92 knob domain peptide cleaved from the 645 Fab (Recombinant, cut out by TEV protease) peptide: GSGSVTCPEGWSECGVAIYGYECGRWGCGHFLNSGPNISPYVTTGSENLYFQ', 'no binding');
